Answer each item with its documented TGI.
test system: M14 melanoma; assay: NCI tumour cell line growth inhibition, 48 h
Answer with a number only, understood to be in µM.

Request: Fill in reported TGI for this entry: CCOC(=O)/C(=C\NC(C)(C)C)c1nc2ccccc2[nH]1
Result: 39.7

Request: Fill in reported TGI for this entry: NCCCCCNc1noc(Cc2c[nH]c3cc(Br)ccc23)n1
Result: 10.3

Request: Fill in reported TGI for this entry: Cc1cc(-c2nnc(/C=C/c3ccc4c(c3)OCO4)o2)n[nH]1
Result: 21.1

Request: Fill in reported TGI for this entry: C[N+](C)(C)CC1CCC(C[N+](C)(C)C)C1=O (stereo unspecified)
Result: 3.35

Request: Fill in reported TGI for this entry: CC(C)(C)c1cc2c(c(C(C)(C)C)c1O)CC(=O)O2
Result: 62.5

Request: Fill in reported TGI for this entry: c1ccc2cc3c(cc2c1)Nc1c2ccccc2nc2cccc-3c12
Result: 3.76

Request: Fill in reported TGI for this entry: COCCOCCOCc1n(Cc2ccc3ccccc3c2)c2ccccc2[n+]1Cc1ccc2ccccc2c1
Result: 1.99

Request: Fill in reported TGI for this entry: C[C@]12Cc3cnc(-c4ccccc4)nc3C[C@@H]1CC[C@@H]1[C@@H]2CC[C@@]2(C)[C@H]1CC[C@]2(C)O
Result: 32.5

Request: Fill in reported TGI for this entry: CN(C)C(=O)OCc1nc2c(N3CCOCC3)nc(-c3ccccc3)nc2n1C
Result: 1.9

====

test system: IGROV1 ovarian; assay: NCI tumour cell line growth inhibition, 48 h
observable: GI50

Request: Enter recorded GI50 with IGROV1 ovarian for Nc1nonc1-c1nc2ccccc2n1Cc1ccc(F)cc1 here.
Result: 5.25 µM

Request: Enter recorded GI50 with IGROV1 ovarian for O=S(=O)(NCCNc1nccc(-c2c(-c3ccc(F)c(O)c3)nc3sccn23)n1)c1ccc(Cl)cc1 here.
Result: 1.45 µM

Request: Enter recorded GI50 with IGROV1 ovarian for CCCCCCCCCC[C@@H](O)[C@@H]1CC[C@@H]([C@@H]2CC[C@@H]([C@@H](O)CCCCCCCCCC[C@H](O)CC3=CC(C)OC3=O)O2)O1 (some centres undefined) here.
Result: 4.4 µM

Request: Enter recorded GI50 with IGROV1 ovarian for COc1ccc(/C(C)=N/NC(=O)CSc2nc3ccccc3c(=O)n2CCc2ccc(S(N)(=O)=O)cc2)cc1 here.
Result: 1.97 µM

====

Answer each item with its documented TGI.
test system: SK-MEL-5 melanoma; assay: NCI tumour cell line growth inhibition, 48 h
Answer with a number only, understood to be in µM.

Request: Fill in reported TGI for this entry: O=C(O)CCO/N=C1/C(c2c(O)[nH]c3ccccc23)=Nc2ccccc21
Result: 27.3

Request: Fill in reported TGI for this entry: COCCOCCOCc1n(Cc2ccc3ccccc3c2)c2ccccc2[n+]1Cc1ccc2ccccc2c1
Result: 0.544

Request: Fill in reported TGI for this entry: OB(O)c1ccccc1C#Cc1ccccc1B(O)O
Result: 31.9

Request: Fill in reported TGI for this entry: C=C1c2ccccc2C(=O)c2c1c1c(C(=O)OC)c(OC(=O)OCc3ccc([N+](=O)[O-])cc3)ccc1n2Cc1ccccc1
Result: 64.3

Request: Fill in reported TGI for this entry: COC(=O)CCC(=O)N1C/C(=C\c2ccccc2)C(=O)/C(=C/c2ccccc2)C1
Result: 5.44

Request: Fill in reported TGI for this entry: NC(=S)N=Nc1c(O)[nH]c2c(Cl)cc(Cl)cc12
Result: 28.2

Request: Fill in reported TGI for this entry: CC(=O)NC1C(OC(C)C(=O)NC(C(=O)NC(CCC(=O)NCCCNC2c3ccccc3Nc3cccc([N+](=O)[O-])c32)C(N)=O)C(C)C)C(O)C(CO)OC1(C)OCc1ccccc1 (centres undefined)
Result: 0.405

Request: Fill in reported TGI for this entry: CC1=C(/C=C/C(=O)CC(=O)/C=C/C2=C(C)CCCC2(C)C)C(C)(C)CCC1
Result: 91.8

Request: Fill in reported TGI for this entry: CSc1ccc2c(c1)C(=O)c1c-2n(CCCN)c(=O)c2cc([N+](=O)[O-])ccc12
Result: 1.63

Request: Fill in reported TGI for this entry: OC(c1ccc(Cl)cc1)(c1ccc(Cl)cc1)c1cncnc1
Result: 27

Request: Fill in reported TGI for this entry: O/N=C(/C(Cl)=C(Cl)Cl)C(Cl)Cl
Result: 40.3

Request: Fill in reported TGI for this entry: N#Cc1cnc2cc(OC[C@@H](O)CO)c(NC(=O)C3CCCC3)cc2c1Nc1ccc(OCc2cccc(F)c2)c(Cl)c1
Result: 17.5
